Exercise: state measured pIC50 for each of the molecules provided.
- TARGET ENTITY: Metabotropic glutamate receptor 1 (Homo sapiens, UniProt Q13255)
- Sequence (Q13255 whole entry): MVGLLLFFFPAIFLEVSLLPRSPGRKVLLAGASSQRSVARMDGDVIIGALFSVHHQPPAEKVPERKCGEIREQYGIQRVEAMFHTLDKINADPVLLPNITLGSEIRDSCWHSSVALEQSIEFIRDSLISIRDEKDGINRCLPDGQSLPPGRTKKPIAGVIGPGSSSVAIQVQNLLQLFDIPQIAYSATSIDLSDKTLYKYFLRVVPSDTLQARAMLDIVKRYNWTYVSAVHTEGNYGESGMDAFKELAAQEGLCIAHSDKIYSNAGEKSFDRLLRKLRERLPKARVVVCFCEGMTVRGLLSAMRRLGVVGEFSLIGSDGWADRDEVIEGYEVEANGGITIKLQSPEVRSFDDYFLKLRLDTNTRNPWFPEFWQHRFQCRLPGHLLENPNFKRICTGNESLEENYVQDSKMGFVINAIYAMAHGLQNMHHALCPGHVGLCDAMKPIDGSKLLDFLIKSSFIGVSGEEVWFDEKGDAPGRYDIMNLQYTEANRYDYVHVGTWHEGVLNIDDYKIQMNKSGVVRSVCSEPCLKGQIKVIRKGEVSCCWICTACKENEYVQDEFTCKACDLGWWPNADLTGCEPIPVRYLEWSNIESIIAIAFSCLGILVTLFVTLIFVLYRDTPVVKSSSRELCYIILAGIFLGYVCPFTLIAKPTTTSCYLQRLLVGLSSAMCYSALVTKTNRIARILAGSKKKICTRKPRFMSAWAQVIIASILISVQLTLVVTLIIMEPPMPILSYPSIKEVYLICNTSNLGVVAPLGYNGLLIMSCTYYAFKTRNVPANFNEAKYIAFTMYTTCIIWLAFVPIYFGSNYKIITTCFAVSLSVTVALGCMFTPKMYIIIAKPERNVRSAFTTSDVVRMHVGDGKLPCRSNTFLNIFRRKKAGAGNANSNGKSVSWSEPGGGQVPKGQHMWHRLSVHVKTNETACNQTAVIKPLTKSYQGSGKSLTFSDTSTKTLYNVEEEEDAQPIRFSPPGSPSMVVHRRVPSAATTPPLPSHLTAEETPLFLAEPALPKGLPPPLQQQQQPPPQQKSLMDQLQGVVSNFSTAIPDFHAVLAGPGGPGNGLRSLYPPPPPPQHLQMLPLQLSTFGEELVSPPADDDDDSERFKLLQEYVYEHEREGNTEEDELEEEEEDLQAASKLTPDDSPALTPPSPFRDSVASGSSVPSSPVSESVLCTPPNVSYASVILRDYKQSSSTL
- ASSAY NOTES: Antagonist activity at human mGluR1
Answers are plain numbers, as −log10 of the molar value.

Dear reader, for each entry below, please note its pIC50.
1. C=C(C)CNc1ncnc2sc3c(=O)n(-c4ccc(C)cc4)cnc3c12
2. C#CCNc1ccnc2sc3c(=O)n(-c4ccc(Br)cc4)cnc3c12
3. C=C(C)CNc1ccnc2sc3c(=O)n(-c4ccc5c(c4)OCCO5)cnc3c12
4. C#CCNc1ncnc2sc3c(=O)n(-c4ccc5occc5c4)cnc3c12

**A:**
1. 7.91
2. 8.74
3. 6.71
4. 7.68
